The entries below come with measured IC50 values attached.
# System: MOLM-13 cells
# procedure.summary: Cell viability assay (CellTiter-Glo) in MOLM-13 cells, alone or with gilteritinib
# Type: cell-based
# experimental.parameters: Homo sapiens, MOLM-13, 72 h, MOLM-13 cells, with gilteritinib 20 nM, three days, CellTiter-Glo; read-out: MOLM-13 IC50 gilteritinib

Below, 6 molecules whose answers are already recorded.
# molecule, tested.target, IC50
measured = [
    ("CN1CCC(c2cccc(-c3cnn([C@H]4C[C@H](CCCNc5ccc6c(c5)C(=O)N(C5CCC(=O)NC5=O)C6=O)C4)c3)n2)CC1 (stereo partly shown)", "MOLM-13 cells", "100 to 1000 nM"),
    ("Cc1nn(CCCCCCNc2ccc3c(c2)C(=O)N(C2CCC(=O)NC2=O)C3=O)c(C)c1-c1cnc2cccc(C#N)c2n1 (stereo not shown)", "MOLM-13 cells", "< 10 nM"),
    ("O=C1CCC(N2Cc3c(Nc4ccnc(Nc5cccc(-n6cc(-c7cnc8ccccc8n7)cn6)c5)n4)cccc3C2=O)C(=O)N1 (stereo not shown)", "MOLM-13 cells", "> 1000 nM"),
    ("Cc1nc(-c2cnc3ccccc3n2)cn1CCCCCCNc1ccc2c(c1)C(=O)N(C1CCC(=O)NC1=O)C2=O (stereo not shown)", "MOLM-13 cells", "100 to 1000 nM"),
    ("O=C1CCC(N2C(=O)c3ccc(NC(=O)CCCC(=O)N4CCC(n5cc(-c6cnc7ccccc7n6)cn5)CC4)cc3C2=O)C(=O)N1 (stereo not shown)", "MOLM-13 cells", "> 1000 nM"),
    ("O=C1CCC(N2C(=O)c3ccc(NC[C@H]4C[C@H](n5cc(-c6cccc(N7CCOCC7)n6)cn5)C4)cc3C2=O)C(=O)N1 (stereo partly shown)", "MOLM-13 cells", "> 1000 nM"),
]

Request the reported IC50 associated with O=C1CCC(N2Cc3c(Nc4ccnc(Nc5ccc(CN6CCC(n7cc(-c8cnc9cccc(Br)c9n8)cn7)CC6)cc5)n4)cccc3C2=O)C(=O)N1 (stereo not shown)
> 1000 nM

What measured IC50 goes with O=C1CCC(N2C(=O)c3ccc(NCCC[C@H]4C[C@H](n5cc(-c6cnc7ccc(CN8CCOCC8)cc7n6)c(C6CC6)n5)C4)cc3C2=O)C(=O)N1 (stereo partly shown) ?
< 10 nM

====

# Tested on: MOLM-13 cells
# procedure.summary: Cell viability assay (CellTiter-Glo) in MOLM-13 cells, alone or with gilteritinib
# Type: cell-based
# experimental.parameters: Homo sapiens, MOLM-13, 72 h, MOLM-13 cells, compound alone (without gilteritinib), three days, CellTiter-Glo; read-out: MOLM-13 IC50
measured.metric: IC50

Worked set:
# compound, IC50
rows = [
    ("Cc1nc(-c2cn([C@H]3C[C@H](CNc4ccc5c(c4)C(=O)N(C4CCC(=O)NC4=O)C5=O)C3)nc2C2CC2)ccc1Cl (stereo partly drawn)", "10 to 100 nM"),
    ("O=C1CCC(N2C(=O)c3ccc(NCCCCCCn4ccc(-c5cnc6ccccc6n5)n4)cc3C2=O)C(=O)N1 (stereo not drawn)", "> 1000 nM"),
    ("O=C1CCC(N2C(=O)c3ccc(NCCCCCC(=O)N4CCC(n5cc(-c6cnc7cccc(C8=CCNCC8)c7n6)cn5)CC4)cc3C2=O)C(=O)N1 (stereo not drawn)", "100 to 1000 nM"),
]

Quick one: IC50 of CN1CCC(c2cn([C@H]3C[C@H](CNc4ccc5c(c4)C(=O)N(C4CCC(=O)NC4=O)C5=O)C3)nc2C2CC2)CC1 (stereo partly drawn) ?
> 1000 nM

Reported IC50 for O=C1CCC(N2C(=O)c3ccc(NC[C@H]4C[C@H](n5cc(-c6nccc7nccnc67)c(C6CC6)n5)C4)cc3C2=O)C(=O)N1 (stereo partly drawn) : what is it?
< 10 nM

I am curious: what IC50 value has been reported for O=C1CCC(N2C(=O)c3ccc(NCCCCCC(=O)N4CCC(n5cc(-c6cnc7ccc(N8CCNCC8)cc7n6)cn5)CC4)cc3C2=O)C(=O)N1 (stereo not drawn) ?
< 10 nM

====

# System: MV4;11 cells
# procedure.summary: Cell viability assay (CellTiter-Glo) in MV4;11 cells, alone or with gilteritinib
# Assay type: cell-based
# experimental.parameters: Homo sapiens, MV4-11, 72 h, MV4;11 cells, without gilteritinib, 3 days, CellTiter-Glo; read-out: MV4; 11 IC50
measured.metric: pIC50
Scale for pIC50: -log10 of concentration given in mol/L; no unit attached.

Some solved cases for reference:
# compound, pIC50
measured = [
    ("O=C1CCC(N2C(=O)c3ccc(NCCCCCC(=O)N4CCC(n5cc(-c6cnccn6)cn5)CC4)cc3C2=O)C(=O)N1 (stereo not drawn) [GS-009]", 6.53),
    ("O=C1CCC(N2C(=O)c3ccc(NCCCCCC(=O)N4CCC(c5ccccn5)CC4)cc3C2=O)C(=O)N1 (stereo not drawn) [GS-017]", 7.70),
]

Which pIC50 is listed for O=C1CCC(N2Cc3cc(NC(=O)CCCCC(=O)N4CCC(n5cc(-c6cnc7cccc(Br)c7n6)cn5)CC4)ccc3C2=O)C(=O)N1 (stereo not drawn) [GS-020] ?
7.54

Which value of pIC50 has been reported for O=C1CCC(N2Cc3cc(CNC(=O)C(F)(F)CCC(=O)N4CCC(n5cc(-c6cnc7cccc(Br)c7n6)cn5)CC4)ccc3C2=O)C(=O)N1 (stereo not drawn) [GS-007] in the records?
6.77

====

# System: MOLM-13 cells
# procedure.summary: Cell viability assay (CellTiter-Glo) in MOLM-13 cells, alone or with gilteritinib
# Assay type: cell-based
# experimental.parameters: Homo sapiens, MOLM-13, 72 h, MOLM-13 cells, compound alone (without gilteritinib), three days, CellTiter-Glo; read-out: MOLM-13 IC50
pIC50: −log10 of the molar value.
measured.metric: pIC50

# compound, measured.metric, result
data = [
    ("O=C(CC1CC1N1CCC(n2cc(-c3cnc4ccccc4n3)cn2)CC1)NCc1ccc2c(c1)CN(C1CCC(=O)NC1=O)C2=O (stereo not shown)", "pIC50", "6.00 to 7.00"),
    ("CN1CCN(c2cccc(-c3cnn([C@H]4C[C@H](CNc5ccc6c(c5)C(=O)N(C5CCC(=O)NC5=O)C6=O)C4)c3)n2)CC1 (stereo partly shown)", "pIC50", "< 6.00"),
    ("O=C1CCC(N2C(=O)c3ccc(NC(=O)COCC(=O)N4CCC(n5cc(-c6cnc7ccccc7n6)cn5)CC4)cc3C2=O)C(=O)N1 (stereo not shown)", "pIC50", "< 6.00"),
    ("O=C1CCC(N2C(=O)c3ccc(NC[C@H]4C[C@H](n5cc(-c6ccccn6)cn5)C4)cc3C2=O)C(=O)N1 (stereo partly shown)", "pIC50", "6.00 to 7.00"),
    ("CN1CCN(c2cccc3ncc(-c4cnn(CCCCCCNc5ccc6c(c5)C(=O)N(C5CCC(=O)NC5=O)C6=O)c4)nc23)CC1 (stereo not shown)", "pIC50", "< 6.00"),
    ("CN1CCC(c2ccc3ncc(-c4cn(CCCCCCNc5ccc6c(c5)C(=O)N(C5CCC(=O)NC5=O)C6=O)nc4C4CC4)nc3c2)CC1 (stereo not shown)", "pIC50", "6.00 to 7.00"),
    ("CN1CCN(c2ccnc(-c3cnn([C@H]4C[C@H](CCCNc5ccc6c(c5)C(=O)N(C5CCC(=O)NC5=O)C6=O)C4)c3)n2)CC1 (stereo partly shown)", "pIC50", "6.00 to 7.00"),
    ("O=C1CCC(N2C(=O)c3ccc(NCCC[C@H]4C[C@H](n5cc(-c6cnc7cc(C8CCOCC8)ccc7n6)cn5)C4)cc3C2=O)C(=O)N1 (stereo partly shown)", "pIC50", "6.00 to 7.00"),
]

Could you tell me which pIC50 is on file for O=C1CCC(N2C(=O)c3ccc(NCCCCCCn4cc(-c5cnc6ccc(C7CC7)cc6n5)cn4)cc3C2=O)C(=O)N1 (stereo not shown) ?
7.00 to 8.00

pIC50 lookup needed for O=C1CCC(N2C(=O)c3ccc(NC[C@H]4C[C@H](n5cc(-c6ccc(Cl)cc6)c(C6CC6)n5)C4)cc3C2=O)C(=O)N1 (stereo partly shown) , thanks.
< 6.00

GET /values?readout=pIC50&item= O=C1CCC(N2C(=O)c3ccc(NC[C@H]4C[C@H](n5cc(-c6ncccn6)c(C6CC6)n5)C4)cc3C2=O)C(=O)N1 (stereo partly shown)
6.00 to 7.00

Record request: pIC50 value, item O=C1CCC(N2C(=O)c3ccc(CC[C@H]4C[C@H](n5cc(-c6cnc7ccccc7n6)c(C6CC6)n5)C4)cc3C2=O)C(=O)N1 (stereo partly shown)
< 6.00

Given the compound O=C1CCC(N2C(=O)c3ccc(NCCC[C@H]4C[C@H](n5cc(-c6ccccn6)cn5)C4)cc3C2=O)C(=O)N1 (stereo partly shown) , what is its reported pIC50?
< 6.00
